These measurements were taken from PubChem BioAssay.

Please provide measured growth inhibition for the entries that follow.
- test_description: inhibition of 3D7 malaria parasite growth – strain 3D7 (AID 2306);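 note: 0% = DMSO wells and 100% = chloroquine plus artemisinin control wells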
- assay_setup: P. falciparum 3D7 erythrocytic growth, LDH absorbance, 72 h; at 2 µM; active compounds read high
Numbers only, in %.

Your task in this section: give growth inhibition for each listed record.
1. COc1ccc(Cl)cc1N1CCN(CCCNC(=O)c2ccc(-c3nc4cc5ccccc5cc4[nH]3)c(F)c2)CC1
2. CCc1cn(CC(=O)N(CCOc2ccc(-c3ccc(C(F)(F)F)cc3)cc2)CCN(CC)CC)c(SCc2ccc(F)cc2)nc1=O
3. COc1ccc(CN(C)CCCSc2ccc(NC(=O)c3cccc4c(=O)cc(-c5ccccc5)[nH]c34)cc2)cc1OC
4. CCCCCCN1CCCN(Cc2ccc(C(=O)Nc3ccc(CC)cc3)cc2)CC1
5. Oc1ccc(OCc2ccccn2)cc1
6. CC(C)c1ccc(CN2CCCCC(NC(=O)c3cc(-c4ccccc4Cl)cs3)C2)cc1 (centres undefined)

1. 99
2. 95
3. 93
4. 97
5. 98
6. 100

Each molecule below has a reported value. Please supply its growth inhibition.
1. N#Cc1cccc(NC(=O)Nc2ccc(CC(=O)N3CCc4cc(Cl)c(N5CCN(C/C=C/c6ccccc6)CC5)cc43)cc2)c1
2. CCCCCCCc1ccc(-c2c(C)[nH]c(C)c(Cl)c2=O)cn1
3. CN1CCC(NCc2ccc(-c3ccc(S(=O)(=O)NC4CCC4)s3)cc2)CC1

91
99
92
